- Tested on: Veronica persica
- test: Pre-emergence herbicide efficacy at 80 g/ha, VERPE
- Type: in vivo
measured.attribute: Pre-emergence efficacy against VERPE

Look up Pre-emergence efficacy against VERPE for this compound: N#Cc1cccc(Nc2ncc(Cl)cn2)c1-n1cc(C(F)(F)F)cn1 [Example 1-38] 90%

Same question, Cc1cnc(Nc2cccc(C#N)c2-n2cc(C(F)(F)F)cn2)nc1 [Example 1-39] this time 90%

And FC(F)c1cc(-c2c(Cl)cccc2Nc2ncc(Cl)cn2)on1 [Example 1-61] ? 90%

---

- Test system: Amaranthus retroflexus
- test: Post-emergence herbicidal efficacy at 320 g/ha, AMARE
- Assay type: in vivo
- experimental.setup: rated visually after about 3 weeks vs untreated controls, 100% = plants have died
Kindly state Post-emergence efficacy at 320 g/ha against AMARE in % for each of the entries shown.
Just the number in %, nothing appended.

I am curious: what Post-emergence efficacy at 320 g/ha against AMARE in % value has been reported for O=S(=O)(CCCC(F)(F)F)Oc1c(F)cccc1Nc1ncc(F)cn1 [Example 1-15] ? 90

// same read-out, input: N#Cc1cnc(Nc2cccc(C#N)c2-n2cc(C(F)(F)F)cn2)nc1 [Example 1-42] 100

# iterate: N#Cc1cccc(Nc2ncccn2)c1-n1cc(C(F)(F)F)cn1 [Example 1-40] 90

Quick one: FC(F)(F)CCCc1ccccc1Nc1ncc(Cl)cn1 [Example 1-1] 90

Thanks! And Fc1cnc(Nc2cccc(F)c2-n2cc(C(F)(F)F)cn2)nc1 [Example 1-48] ? 100

// query: O=S(=O)(CCC(F)(F)F)Oc1c(F)cccc1Nc1ncc(F)cn1 [Example 1-17] 90

Try N#Cc1cc(Cl)cnc1Nc1ccccc1CCCCC(F)(F)F [Example 1-76] next. 90

---

Exercise: state measured Pre-emergence efficacy at 320 g/ha against AMARE in % for each of the compounds provided.
- Tested on: Amaranthus retroflexus
- test: Pre-emergence herbicide efficacy at 320 g/ha, AMARE
- Assay type: in vivo
- experimental.setup: scored visually after about 3 weeks vs untreated controls, 100% = plants have died
Lab book: enter the figure in %, no units written.

GET /values?readout=Pre-emergence efficacy at 320 g/ha against AMARE in %&item= N#Cc1cccc(Nc2ncc(F)cn2)c1-c1ccc(F)c(F)c1 [Example 1-30] 100

Now this one: Cc1cccc(Nc2ncc(F)cn2)c1-n1cc(C(F)(F)F)cn1 [Example 1-50] 100

Thanks! And Cc1cnn(-c2c(C#N)cccc2Nc2ncc(F)cn2)c1 [Example 1-67] ? 100

Now the same for O=S(=O)(CCCC(F)(F)F)Oc1c(F)cccc1Nc1ncc(Cl)cn1 [Example 1-14] 90

Param item: N#Cc1cnc(Nc2cccc(C#N)c2-n2cc(C(F)(F)F)cn2)nc1 [Example 1-42] 90

And then Cc1cnn(-c2c(C#N)cccc2Nc2ncc(Cl)cn2)c1 [Example 1-66] , what is it? 100

# iterate: O=S(=O)(CCC(F)(F)F)Oc1c(F)cccc1Nc1ncc(Cl)cn1 [Example 1-16] 90

Input N#Cc1cccc(Nc2ncc(Cl)cn2)c1-n1cc(C(F)(F)F)cn1 [Example 1-38] 100
